Percent Effect values for the molecules below.
- Test Target: Arginase-2, mitochondrial (Homo sapiens) (UniProt P78540)
- Sequence (P78540 whole entry): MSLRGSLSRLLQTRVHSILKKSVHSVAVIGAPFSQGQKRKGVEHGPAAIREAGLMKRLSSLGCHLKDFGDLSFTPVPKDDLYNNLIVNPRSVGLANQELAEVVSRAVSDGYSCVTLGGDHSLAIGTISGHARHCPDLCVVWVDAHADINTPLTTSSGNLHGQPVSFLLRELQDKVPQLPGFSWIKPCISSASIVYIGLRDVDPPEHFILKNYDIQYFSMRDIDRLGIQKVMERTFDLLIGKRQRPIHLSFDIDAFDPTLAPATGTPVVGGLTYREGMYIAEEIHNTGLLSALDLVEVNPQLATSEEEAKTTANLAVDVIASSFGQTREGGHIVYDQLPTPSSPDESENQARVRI
- Experiment Description: in vitro enzyme assay to detect the production of urea directly proportional to the activity of Arginase II
- Assay type: functional
- Design: scale not given: in the data most compounds retested in dose-response had high values
- Test Parameters: 33.3 µM
Numeric only. Scale: %

Here are 2 molecules together with their reported answers.
>>> df
                                   molecule   endpoint_name  measurement_units  reported
0  O=C(c1ccco1)N1C[C@H]2CCCN(Cc3cccs3)[C@H]2C1  Percent Effect                  %     -2.02
1  O=C(c1cnccn1)N1CCCC2(COCCN(CC3CC3)C2)C1 (centres undefined)  Percent Effect                  %     -0.81

Query block: GET /values?readout=Percent Effect&item= CC(=O)N1CCc2c(nc(-c3ccncc3)nc2N(C)CC(O)CO)C1 (centres undefined)
Result block: 5.94

Query block: Record: Cc1cccc(-c2ccc(C(=O)NCCN(C)C3CC3)c(=O)[nH]2)c1
Result block: 4.41

Query block: Thanks! And Cc1ccc(OCCC(=O)N2CCN(c3cnccn3)CC2)cc1C ?
Result block: 3.48

Query block: Moving on to C1CC(CN2CCOCC3(CCN(C4CCOCC4)C3)C2)CCO1 (centres undefined)
Result block: -6.88

Query block: Quick one: Cn1cc(CN2CCCn3cnc(CN4CCCC4=O)c3C2)cn1
Result block: -23.5

Query block: Continue with c1ccc(-c2noc3c2CN(CC2CC2)CC3)cc1
Result block: -0.455

Query block: Here is the next molecule: c1cnc2c(c1)cc([C@H]1CCCO1)n2CCN1CCOCC1
Result block: -5.8

Query block: For Cc1ccc(CN2CCC3(CC2)OC(C(=O)N(C)C)c2ccccc23)o1 (centres undefined) then?
Result block: -8.63

Query block: Again, but for c1cncc(CN2CCc3ncnc(C4CCOC4)c3CC2)c1 (centres undefined)
Result block: 2.1

Query block: What do you have for O=C(O)CCc1cc2n(n1)CCCN(C(=O)c1ccc3cc[nH]c3c1)C2 ?
Result block: 10.5

Query block: And O=C1CCCCN1Cc1cccc(NC(=O)N2CCSCC2)c1 ?
Result block: 8.83

Query block: Subsequent entry: Cc1cnn(CC2CCCCN2CCCS(N)(=O)=O)c1 (centres undefined)
Result block: 3.55
